# tested.target: Protein kinase C (PKC)
# assay.method.text: Agonist activity at Protein kinase C in human U1 cells infected with HIV-1 NL4-3 assessed as induction of HIV-1 p24 production after 72 hrs by ELISA
# Assay type: cell-based
Listing: EC50 of selected compounds
Hi! Could you send only the number? It should be in nM, unit omitted.

As a guide, the following entries are already answered.
INSERT INTO measurements (smiles_record, property_label, numeric_result) VALUES
  ('C=C(C)[C@]12C[C@@H](COC(=O)c3ccccc3)[C@@]34OC5(O[C@@H]1[C@@H]3[C@@H]1O[C@]1(CO)[C@@H](O)[C@@]1(O)[C@H]4[C@H]([C@H](C)[C@@H]1OC(=O)c1ccccc1)[C@H](C)CCCCCC[C@H]5O)O2', 'EC50', 0.19),
  ('C=C(C)[C@]12C[C@@H](COC(=O)c3ccccc3)[C@@]34OC5(O[C@@H]1[C@@H]3[C@@H]1O[C@]1(CO)[C@@H](O)[C@@]1(O)[C@H]4[C@H]([C@H](C)[C@@H]1OC(=O)c1ccccc1)[C@H](C)CCCCCCC5=O)O2', 'EC50', 0.6);

Now consider the entry below.
Inquiry: Given the compound C=C(C)[C@]12C[C@@H](COC(=O)c3ccccc3)[C@@]34OC5(O[C@@H]1[C@@H]3[C@@H]1O[C@]1(CO)[C@@H](O)[C@@]1(O)[C@H]4[C@H]([C@H](C)[C@@H]1OC(=O)c1ccncc1)[C@H](C)CCCCCC[C@H]5O)O2 , write its reported EC50.
Reply text: 0.55
